# Tested on: normal human dermal fibroblasts (NHDF) cells
# Protocol Description: Fibroblast cytotoxicity (CellTiter-Glo)
# Assay type: cell-based
# Condition Set: 10 µM
Readout Type: Cytotoxicity: Relative Cell Viability (% of Negative Control)

The cases that follow already have their Cytotoxicity: Relative Cell Viability (% of Negative Control) on record.
{"Molecule": "COc1ccccc1NS(=O)(=O)c1cc(Cl)ccc1Cl [compound 766532]", "Result": "56.4 % of Negative Control"}
{"Molecule": "COc1cc(NS(=O)(=O)c2cccc(C(F)(F)F)c2)ncn1 [compound 71795763]", "Result": "90.4 % of Negative Control"}
{"Molecule": "Cc1ccc(C)c(CSc2nc3ccccc3[nH]2)c1 [compound 899259]", "Result": "84.5 % of Negative Control"}
{"Molecule": "CCC(OCC(O)CN1CCC(Cc2ccccc2)CC1)c1ccccc1 (stereo not drawn) [compound 4471873]", "Result": "78.8 % of Negative Control"}
{"Molecule": "NNc1nc2cc3c(cc2s1)OCCO3 [compound 2771030]", "Result": "94.3 % of Negative Control"}
{"Molecule": "O=C(CCc1ccccc1Br)N1CCC(c2cccs2)CC1 [compound 71807060]", "Result": "100.7 % of Negative Control"}
{"Molecule": "Cc1cc(C(=O)NCC#CCOc2cccc(C(F)(F)F)c2)c(C)o1 [compound 71803023]", "Result": "90.7 % of Negative Control"}
{"Molecule": "COc1ccc(Nc2nc3ccc(OC)cc3s2)cc1 [compound 7086348]", "Result": "91.3 % of Negative Control"}

Record request: Cytotoxicity: Relative Cell Viability (% of Negative Control) value, item O=C1c2ccccc2S(=O)(=O)N1CC(O)COc1ccc(Cl)cc1Cl (stereo not drawn) [compound 2943193] 90.5 % of Negative Control

---

Would you mind telling me the reported Cytotoxicity: Relative Cell Viability (% of Negative Control) of each entry?
# System: normal human dermal fibroblasts (NHDF) cells
# Protocol Description: Fibroblast cytotoxicity (CellTiter-Glo)
# Format: cell-based
# Condition Set: 10 µM

// each compound listed below needs its Cytotoxicity: Relative Cell Viability (% of Negative Control)
1. OC(COc1ccc(C23CC4CC(CC(C4)C2)C3)cc1)C[N+]1(Cc2ccccc2)CCOCC1 (stereo not drawn) [compound 16456368]
2. CCCc1cc(=O)[nH]c(-n2nc(C)cc2C)n1 [compound 44116743]
3. c1ccc(CNc2ncnc3scc(-c4cccs4)c23)nc1 [compound 944383]
4. O=S(=O)(Nc1ccc(Br)cc1F)c1ccc(Cl)c(C(F)(F)F)c1 [compound 1307471]
5. Cc1ccc(NS(=O)(=O)N2CCCCCC2)cc1Cl [compound 8720355]
6. Cc1ccc2nc(Nc3ccncc3)nc(-c3ccccc3)c2c1 [compound 3516311]

1. 2.8 % of Negative Control
2. 64.3 % of Negative Control
3. 92.9 % of Negative Control
4. 98.7 % of Negative Control
5. 71.9 % of Negative Control
6. 72.7 % of Negative Control

Provide reported Cytotoxicity: Relative Cell Viability (% of Negative Control) for each item, in the same order as listed.
1. O=C(Nc1ccc2sccc2c1)c1ccc([N+](=O)[O-])s1 [compound 3629287]
2. Cc1cc(-c2nnc(NC(=O)c3ccc(C(=O)c4ccccc4)cc3)o2)nn1C [compound 25283140]
3. O=C(CCc1ccccc1Br)N1CCC(c2ccsc2)CC1 [compound 71807075]

1. 19.4 % of Negative Control
2. 79.9 % of Negative Control
3. 93.1 % of Negative Control

---

# Test system: normal human dermal fibroblasts (NHDF) cells
# Protocol Description: Fibroblast cytotoxicity (CellTiter-Glo)
# Type: cell-based
# Condition Set: 10 µM
# Description: PrimaPure normal human dermal fibroblasts (NHDF) cells (Genlatis PH10605A) were cultured and passaged in fibroblast growth medium (Genlatis PM116500) according to the manufacturer’s protocol. NHDF cells (1 × 10^3 per well) were plated in a 384-well plate in cell culture medium. […] Following treatment, CellTiter-Glo (Promega) reagent was used to assay ATP-dependent luminescence and thus provide a measure of cell viability. […]
Readout Type: Cytotoxicity: Relative Cell Viability (% of Negative Control)

Solved entries:
{"Molecule": "FC(F)(F)c1cccc(N2CCN(c3ncnc4sccc34)CC2)c1", "Result": "96.2 % of Negative Control"}
{"Molecule": "CC(C)(C)c1ccc(-c2csc(N)n2)cc1", "Result": "86.3 % of Negative Control"}
{"Molecule": "Cl.Cl.OC(COc1cccc2ccccc12)CN1CCN(c2ccc(F)cc2)CC1 (stereo not drawn)", "Result": "96.8 % of Negative Control"}
{"Molecule": "O=C(Nc1cccc(C(F)(F)F)c1)C(Cl)C(=O)c1ccccc1 (stereo not drawn)", "Result": "20.8 % of Negative Control"}

Provide reported Cytotoxicity: Relative Cell Viability (% of Negative Control) for each item, in the same order as listed.
1. O=C(NCCc1nc2c(c(C(F)(F)F)n1)CCCC2)c1ccc(F)cc1Cl
2. Cc1cc(C(=O)NCCC(O)c2cccc3ccccc23)c(C)o1 (stereo not drawn)
3. O=C(/C=C/c1cccc(F)c1)c1ccc[nH]1
4. COc1cc(-c2c(C#N)c(N)nc3c2c(C)nn3-c2ccc(C)cc2)cc(OC)c1OC
5. Cc1ccccc1OCCSCc1nc2ccccc2[nH]1
6. NC(=O)c1ccsc1NC(=O)c1ccc(Cl)cc1Cl
7. Nc1nc(COc2ccc3ccccc3c2)cs1

1. 106.4 % of Negative Control
2. 101.1 % of Negative Control
3. 40.0 % of Negative Control
4. 84.7 % of Negative Control
5. 86.0 % of Negative Control
6. 83.5 % of Negative Control
7. 108.1 % of Negative Control

For every listed record, write down its Cytotoxicity: Relative Cell Viability (% of Negative Control).
1. Cc1ccc(S(=O)(=O)Nc2cc(Sc3nc[nH]n3)c(O)c3ccccc23)c(C)c1
2. CC(C)C(=O)Nc1nnc(SCc2cccc(F)c2)s1
3. O=C(Nc1nc2c(s1)CN(C(=O)C1(c3cccs3)CCCC1)CC2)c1ccoc1
4. COC(=O)C1=C(N)OC2=C(C(=O)CCC2)C1c1ccc(OC)c(OC)c1 (stereo not drawn)
5. O=S(=O)(NCc1csc(-c2ccccc2)n1)c1cc(Cl)ccc1Cl
6. CCCC(=O)N1CCN(c2nc3c(C)c(Cl)ccc3s2)CC1
7. Cc1nc(Oc2ccccc2)cc(N2CCN(C(=O)/C=C/c3ccccc3)CC2)n1

["3.5 % of Negative Control", "106.8 % of Negative Control", "91.4 % of Negative Control", "104.5 % of Negative Control", "89.2 % of Negative Control", "104.9 % of Negative Control", "90.0 % of Negative Control"]

---

# Tested on: normal human dermal fibroblasts (NHDF) cells
# Protocol Description: Fibroblast cytotoxicity (CellTiter-Glo)
# Assay type: cell-based
# Condition Set: 10 µM
Could you please report measured Cytotoxicity: Relative Cell Viability (% of Negative Control) for the items listed next?

// below: answered molecules
{"Molecule": "CCCC(CCC)C(=O)N1CCN(c2ccc(-c3cccnc3)nn2)CC1", "Result": "103.7 % of Negative Control"}
{"Molecule": "c1ccc(Cn2nnc3c(Sc4ncco4)ncnc32)cc1", "Result": "4.1 % of Negative Control"}
{"Molecule": "S=C(NCc1ccco1)SCc1cn2ccccc2n1", "Result": "86.3 % of Negative Control"}
{"Molecule": "Cc1nc(NC(=O)CCc2ccccc2)sc1C", "Result": "96.8 % of Negative Control"}
{"Molecule": "O=C(NC(=S)NCc1ccccc1)c1ccccc1", "Result": "97.5 % of Negative Control"}

Value sought for every listed molecule: Cytotoxicity: Relative Cell Viability (% of Negative Control).
1. CC(C)(C)c1c[se]c(=S)s1
2. CCOC(=O)c1ccc(NC(=O)CC2Sc3ncnn3C2=O)cc1 (centres unmarked)
3. C/C=C/c1ccc(OCCn2cnc3ccccc32)c(OC)c1
4. COc1ccc(CCNC(=O)c2cnn3c(-c4ccc(C)c(C)c4)ccnc23)cc1OC
5. Cc1nc(C)c(C(=O)NCCn2ncc3c(N4CCN(c5ccc(F)cc5)CC4)ncnc32)s1
6. OC(COc1ccc(Br)cc1Br)CN1CCc2ccccc2C1 (centres unmarked)
7. O=C(Nc1nc2c(Br)cccc2s1)C1CC1
8. Cc1ccccc1CSc1n[nH]c(=O)c2cc(-c3ccco3)nn12

98.5 % of Negative Control
99.4 % of Negative Control
97.3 % of Negative Control
105.7 % of Negative Control
79.3 % of Negative Control
28.9 % of Negative Control
66.1 % of Negative Control
97.6 % of Negative Control

Quick batch: Cytotoxicity: Relative Cell Viability (% of Negative Control) for everything below.
1. COc1ccc(-c2noc(CSc3nc4ccsc4c(=O)n3C)n2)cc1
2. O=Cc1sc(=O)n(Cc2ccccc2)c1Cl
3. O=C1CC(c2cccs2)CC(=O)N1Cc1csc(-c2ccccc2)n1
4. CN(C)/C=C/c1cc(=S)c2ccccc2s1
5. Cc1c(-n2c(-c3ccccc3)csc2=NC(=O)c2ccccc2)c(=O)n(-c2ccccc2)n1C
6. CC(C)=CC(=O)Nc1ccc(OCc2ccccc2)cc1

["109.3 % of Negative Control", "115.4 % of Negative Control", "95.9 % of Negative Control", "72.5 % of Negative Control", "93.1 % of Negative Control", "91.1 % of Negative Control"]

Provide Cytotoxicity: Relative Cell Viability (% of Negative Control) for all items below, preserving their order.
1. ClC(Cl)(c1nnnn1-c1ccccc1)c1nnnn1-c1ccccc1
2. Cc1cc(C)n(-c2nc(CCNC(=O)c3cc(C)oc3C)cs2)n1
3. Cc1cc(NC(=O)c2cccc(Oc3ccccc3)c2)on1
4. CCCc1cc(C(=O)OC)c(N2C(=O)C=CC2=O)s1

90.6 % of Negative Control
103.6 % of Negative Control
105.8 % of Negative Control
4.1 % of Negative Control
